ASSAYED_SYSTEM: human Src enzyme (Homo sapiens, UniProt P12931)
Construct: purchased Carna Biosciences, Inc. 08-173
Sequence (P12931 whole entry): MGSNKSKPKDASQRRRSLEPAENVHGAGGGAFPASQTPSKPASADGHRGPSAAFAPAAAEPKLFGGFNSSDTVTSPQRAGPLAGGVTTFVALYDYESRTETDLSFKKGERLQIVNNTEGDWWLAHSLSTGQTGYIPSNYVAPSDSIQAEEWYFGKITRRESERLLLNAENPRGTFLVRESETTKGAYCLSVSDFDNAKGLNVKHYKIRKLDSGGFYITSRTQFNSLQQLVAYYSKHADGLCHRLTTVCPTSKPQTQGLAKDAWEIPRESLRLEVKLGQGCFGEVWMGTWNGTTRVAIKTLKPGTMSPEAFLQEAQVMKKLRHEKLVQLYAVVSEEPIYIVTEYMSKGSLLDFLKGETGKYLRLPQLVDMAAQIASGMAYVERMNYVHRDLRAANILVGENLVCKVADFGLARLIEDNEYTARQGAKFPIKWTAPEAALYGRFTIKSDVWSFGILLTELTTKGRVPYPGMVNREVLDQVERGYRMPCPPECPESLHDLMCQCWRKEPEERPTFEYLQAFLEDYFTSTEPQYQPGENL
ASSAY_PROTOCOL: Src enzyme inhibitory activity (time-resolved fluorometry, biotinylated peptide phosphorylation)
Assay type: biochemical
CONDITIONS_USED: read-out: SRC_IC50
log10 of IC50: recorded values
PROPERTY_MEASURED: log10 of IC50 (log10 of the value in nM)

CHEMICAL_STRUCTURE: Cc1cc(Oc2ccccc2F)ccc1-n1ncc(C(=O)c2cc3cc(OC4CCN(C(C)C)CC4)c(N4CCC(N5CCOCC5)CC4)cc3[nH]2)c1N
ASSAYED_SYSTEM: human Src enzyme (Homo sapiens, UniProt P12931)
TEST_VALUE: 0.18
--
CHEMICAL_STRUCTURE: Cc1cc(Oc2ccccc2F)ccc1-n1ncc(C(=O)c2cc3cc(OCC(F)F)c(N4CC5(CCCC5)NS4(=O)=O)cc3[nH]2)c1N
ASSAYED_SYSTEM: human Src enzyme (Homo sapiens, UniProt P12931)
TEST_VALUE: 2.36
--
CHEMICAL_STRUCTURE: Cc1cc(-n2ncc(C(=O)c3cc4cc(OC5CCN(C(C)C)CC5)c(Br)cc4[nH]3)c2N)c(F)cc1Oc1ccccc1F
ASSAYED_SYSTEM: human Src enzyme (Homo sapiens, UniProt P12931)
TEST_VALUE: 2.34
--
CHEMICAL_STRUCTURE: Cc1cc(Oc2cccc(F)c2F)ncc1-n1ncc(C(=O)c2cc3cc(NS(C)(=O)=O)c(F)cc3[nH]2)c1N
ASSAYED_SYSTEM: human Src enzyme (Homo sapiens, UniProt P12931)
TEST_VALUE: 1.85
--
CHEMICAL_STRUCTURE: Cc1cc(-n2ncc(C(=O)c3cc4cc(OC5CCN(C(C)C)CC5)c(F)cc4[nH]3)c2N)ccc1Oc1cccc(F)c1
ASSAYED_SYSTEM: human Src enzyme (Homo sapiens, UniProt P12931)
TEST_VALUE: 2.65
--
CHEMICAL_STRUCTURE: Cc1cc(Oc2c(F)cccc2F)ncc1-n1ncc(C(=O)c2cc3cc(OCC(F)F)c(NS(=O)(=O)C4CCCC4)cc3[nH]2)c1N
ASSAYED_SYSTEM: human Src enzyme (Homo sapiens, UniProt P12931)
TEST_VALUE: 2.54

###

IC50: recorded values
ASSAYED_SYSTEM: human Src enzyme (Homo sapiens, UniProt P12931)
Construct: purchased Carna Biosciences, Inc. 08-173
ASSAY_PROTOCOL: Src enzyme inhibitory activity (time-resolved fluorometry, biotinylated peptide phosphorylation)
Format: biochemical
CONDITIONS_USED: biotinylated peptide phosphorylation, read-out: SRC_IC50
PROPERTY_MEASURED: IC50 (µM)

CHEMICAL_STRUCTURE: Cc1cc2cc(C(=O)c3cnn(-c4cnc(Oc5ccccc5F)cc4C)c3N)[nH]c2cc1NS(=O)(=O)c1cc(C#N)ccn1
TEST_VALUE: 0.28
//
CHEMICAL_STRUCTURE: Cc1cc(Oc2ccccc2F)cc(F)c1-n1ncc(C(=O)c2cc3cc(OCC(F)F)c(NC4CN(S(C)(=O)=O)C4)cc3[nH]2)c1N
TEST_VALUE: 0.016
//
CHEMICAL_STRUCTURE: Cc1cc(Oc2cc(F)ccc2F)cc(F)c1-n1ncc(C(=O)c2cc3cc(F)c(NS(C)(=O)=O)cc3[nH]2)c1N
TEST_VALUE: 0.19
